Listed next: entries and their corresponding PBM binding z-score.
- System: RARa:RXR (NR concentration 270 nM, RXRa partner concentration 90 nM)
- protocol-description: PBM binding z-score (relative to random genomic background probes); higher = stronger binding; sequences stand for … in GC…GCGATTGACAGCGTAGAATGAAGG
parameter-measured: PBM binding z-score

polymer_sequence=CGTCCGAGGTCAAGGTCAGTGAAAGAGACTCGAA parameter_measured="PBM binding z-score" obs_value=6.15
polymer_sequence=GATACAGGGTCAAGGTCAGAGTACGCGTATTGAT parameter_measured="PBM binding z-score" obs_value=5.53
polymer_sequence=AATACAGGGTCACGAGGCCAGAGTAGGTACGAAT parameter_measured="PBM binding z-score" obs_value=5.27
polymer_sequence=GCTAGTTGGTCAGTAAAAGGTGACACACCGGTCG parameter_measured="PBM binding z-score" obs_value=1.07
polymer_sequence=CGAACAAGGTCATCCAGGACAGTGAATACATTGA parameter_measured="PBM binding z-score" obs_value=5.39
polymer_sequence=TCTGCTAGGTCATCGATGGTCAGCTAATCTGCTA parameter_measured="PBM binding z-score" obs_value=2.07
polymer_sequence=ATCGAAAGGTCAAGGTGAGTATAGAGAAAGGGAA parameter_measured="PBM binding z-score" obs_value=5.85
polymer_sequence=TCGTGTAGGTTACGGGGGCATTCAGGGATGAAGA parameter_measured="PBM binding z-score" obs_value=3.71
polymer_sequence=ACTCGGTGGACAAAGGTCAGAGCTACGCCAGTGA parameter_measured="PBM binding z-score" obs_value=4.02
polymer_sequence=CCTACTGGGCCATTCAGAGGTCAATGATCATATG parameter_measured="PBM binding z-score" obs_value=3.93
polymer_sequence=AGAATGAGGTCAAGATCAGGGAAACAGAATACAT parameter_measured="PBM binding z-score" obs_value=5.28
polymer_sequence=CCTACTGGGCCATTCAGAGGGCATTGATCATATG parameter_measured="PBM binding z-score" obs_value=0.0322
polymer_sequence=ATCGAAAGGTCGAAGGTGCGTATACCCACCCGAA parameter_measured="PBM binding z-score" obs_value=3.01
polymer_sequence=CAAAATAGGTCAAAGGTCAAAGTCGAGCCAACCA parameter_measured="PBM binding z-score" obs_value=9.14
polymer_sequence=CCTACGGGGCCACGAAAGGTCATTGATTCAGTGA parameter_measured="PBM binding z-score" obs_value=5.88
polymer_sequence=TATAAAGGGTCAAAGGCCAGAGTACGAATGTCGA parameter_measured="PBM binding z-score" obs_value=5.99
polymer_sequence=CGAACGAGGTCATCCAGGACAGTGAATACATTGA parameter_measured="PBM binding z-score" obs_value=6.05
polymer_sequence=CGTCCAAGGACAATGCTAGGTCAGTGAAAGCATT parameter_measured="PBM binding z-score" obs_value=0.502
polymer_sequence=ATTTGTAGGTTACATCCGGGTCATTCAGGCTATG parameter_measured="PBM binding z-score" obs_value=4.19
polymer_sequence=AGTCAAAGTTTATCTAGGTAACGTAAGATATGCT parameter_measured="PBM binding z-score" obs_value=0.503
polymer_sequence=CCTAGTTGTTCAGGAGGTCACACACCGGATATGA parameter_measured="PBM binding z-score" obs_value=4.4
polymer_sequence=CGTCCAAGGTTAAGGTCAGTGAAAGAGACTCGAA parameter_measured="PBM binding z-score" obs_value=3.56
polymer_sequence=AGAATGAGGTTAAACGTAGATCAGGGAAGAAAGT parameter_measured="PBM binding z-score" obs_value=2.69
polymer_sequence=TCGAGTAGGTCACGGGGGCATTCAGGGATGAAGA parameter_measured="PBM binding z-score" obs_value=5.53
polymer_sequence=CGAACTAGGTCAAAGGACATTGAAAGGCGACGTA parameter_measured="PBM binding z-score" obs_value=2.7
polymer_sequence=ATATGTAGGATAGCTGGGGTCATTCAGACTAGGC parameter_measured="PBM binding z-score" obs_value=5.49
polymer_sequence=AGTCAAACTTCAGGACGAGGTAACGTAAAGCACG parameter_measured="PBM binding z-score" obs_value=0.165
polymer_sequence=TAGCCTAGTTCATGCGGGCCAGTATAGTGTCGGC parameter_measured="PBM binding z-score" obs_value=-0.185
polymer_sequence=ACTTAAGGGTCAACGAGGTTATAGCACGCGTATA parameter_measured="PBM binding z-score" obs_value=6.74
polymer_sequence=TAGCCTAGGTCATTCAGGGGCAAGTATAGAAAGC parameter_measured="PBM binding z-score" obs_value=3.46
polymer_sequence=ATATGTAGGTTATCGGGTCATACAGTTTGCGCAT parameter_measured="PBM binding z-score" obs_value=4
polymer_sequence=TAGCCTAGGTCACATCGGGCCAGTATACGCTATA parameter_measured="PBM binding z-score" obs_value=2.25
polymer_sequence=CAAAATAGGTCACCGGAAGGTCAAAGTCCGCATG parameter_measured="PBM binding z-score" obs_value=8.2
polymer_sequence=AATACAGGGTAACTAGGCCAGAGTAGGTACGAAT parameter_measured="PBM binding z-score" obs_value=-0.00374
polymer_sequence=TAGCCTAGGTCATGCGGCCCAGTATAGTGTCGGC parameter_measured="PBM binding z-score" obs_value=2.1
polymer_sequence=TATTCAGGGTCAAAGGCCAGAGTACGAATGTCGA parameter_measured="PBM binding z-score" obs_value=6.17
polymer_sequence=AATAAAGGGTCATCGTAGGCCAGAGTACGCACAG parameter_measured="PBM binding z-score" obs_value=5.67
polymer_sequence=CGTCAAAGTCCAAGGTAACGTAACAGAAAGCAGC parameter_measured="PBM binding z-score" obs_value=0.165
polymer_sequence=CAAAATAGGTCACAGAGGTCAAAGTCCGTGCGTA parameter_measured="PBM binding z-score" obs_value=7.81
polymer_sequence=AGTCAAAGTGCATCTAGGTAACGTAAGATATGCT parameter_measured="PBM binding z-score" obs_value=0.595
polymer_sequence=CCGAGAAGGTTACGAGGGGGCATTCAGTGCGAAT parameter_measured="PBM binding z-score" obs_value=4.07
polymer_sequence=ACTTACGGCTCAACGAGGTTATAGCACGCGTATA parameter_measured="PBM binding z-score" obs_value=0.812
polymer_sequence=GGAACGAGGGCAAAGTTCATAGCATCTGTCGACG parameter_measured="PBM binding z-score" obs_value=6.65
polymer_sequence=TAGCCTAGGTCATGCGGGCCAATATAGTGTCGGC parameter_measured="PBM binding z-score" obs_value=2.13
polymer_sequence=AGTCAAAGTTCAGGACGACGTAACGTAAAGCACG parameter_measured="PBM binding z-score" obs_value=1.86
polymer_sequence=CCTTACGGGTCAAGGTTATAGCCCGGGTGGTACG parameter_measured="PBM binding z-score" obs_value=4.46
polymer_sequence=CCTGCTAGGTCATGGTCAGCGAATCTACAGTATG parameter_measured="PBM binding z-score" obs_value=2.26
polymer_sequence=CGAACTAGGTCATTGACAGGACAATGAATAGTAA parameter_measured="PBM binding z-score" obs_value=2.45
polymer_sequence=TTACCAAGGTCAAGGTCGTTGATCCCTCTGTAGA parameter_measured="PBM binding z-score" obs_value=5.57
polymer_sequence=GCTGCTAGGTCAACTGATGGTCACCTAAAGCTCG parameter_measured="PBM binding z-score" obs_value=3.26
polymer_sequence=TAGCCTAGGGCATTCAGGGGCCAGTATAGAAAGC parameter_measured="PBM binding z-score" obs_value=0.405
